Measured values drawn from patent US20240343733A1 for this set.

Listed below: DC50 values for each entry.
target: IRAK4 (Homo sapiens, UniProt Q9NWZ3); construct: 293Tcells expressing HiBiT-tagged IRAK4 were then added into 384-well plates; assay: IRAK4 Degradation Assay, HiBiT Method; format: cell-based; settings: 293T cells expressing HiBiT-tagged IRAK4, 6 hours
Sequence (Q9NWZ3 whole entry): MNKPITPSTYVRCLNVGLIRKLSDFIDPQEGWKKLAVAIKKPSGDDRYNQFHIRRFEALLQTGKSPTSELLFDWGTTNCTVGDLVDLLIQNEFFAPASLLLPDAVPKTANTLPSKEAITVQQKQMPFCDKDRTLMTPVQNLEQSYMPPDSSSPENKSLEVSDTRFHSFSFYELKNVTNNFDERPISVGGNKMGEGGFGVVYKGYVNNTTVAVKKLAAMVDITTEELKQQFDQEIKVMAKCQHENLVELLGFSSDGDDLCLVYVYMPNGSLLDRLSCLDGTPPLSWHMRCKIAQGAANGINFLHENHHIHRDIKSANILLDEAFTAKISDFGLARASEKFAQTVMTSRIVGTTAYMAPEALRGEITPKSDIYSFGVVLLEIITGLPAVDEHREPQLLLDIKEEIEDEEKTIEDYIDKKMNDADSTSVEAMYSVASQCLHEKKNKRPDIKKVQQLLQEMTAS

Compound: CC(C)Oc1cc2nn([C@H]3CC[C@H](CN4CC[C@H](c5cc6c(cc5F)c(N5CCC(=O)NC5=O)nn6C)[C@H](O)C4)CC3)cc2cc1C(=O)Nc1cccn([C@H]2C[C@H]2F)c1=O
DC50: < 10 nM

Task: Entry under review: CC(C)Oc1cc2nc(C3CCN(C(=O)CC4CCN(c5ncc(C6CCC(=O)NC6=O)cc5F)CC4)CC3)cn2cc1C(=O)Nc1cccn([C@H]2C[C@H]2F)c1=O (some centres unmarked) . Reported DC50?
Output: 10 to 100 nM

Task: Entry under review: CC(C)Oc1cc2nn(C3CCN(C(=O)CC4(O)CCN(c5ccc(NC6CCC(=O)NC6=O)cc5F)CC4)CC3)cc2cc1C(=O)Nc1cccc(C(F)(F)F)n1 (centres unmarked) . Reported DC50?
Output: 10 to 100 nM

Task: Entry under review: CC(C)Oc1cc2nc([C@H]3CC[C@H](CN4CCC(c5ccc6c(c5)n(C)c(=O)n6C5CCC(=O)NC5=O)CC4)CC3)cn2cc1C(=O)Nc1cccc(C(F)(F)F)n1 (some centres unmarked) . Reported DC50?
Output: 500 to 1000 nM

Task: Entry under review: CC(C)Oc1cc2nc([C@H]3CC[C@H](CN4CCC(c5cc(F)c(C6CCC(=O)NC6=O)cc5F)C(F)(F)C4)CC3)cn2cc1C(=O)Nc1cnn2cccnc12 (some centres unmarked) . Reported DC50?
Output: 10 to 100 nM
